Please provide measured PBM binding z-score for the entries that follow.
Test system: RARb homodimer (NR concentration 270 nM)
Assay: PBM binding z-score (relative to random genomic background probes); higher = stronger binding; sequences stand for … in GC…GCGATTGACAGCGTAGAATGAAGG
Numbers only.

[
  {
    "monomer sequence": "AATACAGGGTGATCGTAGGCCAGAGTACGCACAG",
    "assayed target": "RARb homodimer (NR concentration 270 nM)",
    "val": 0.66
  },
  {
    "monomer sequence": "TGTCAAAGCTCAAAGGTAACGTAAGTATCCACAC",
    "assayed target": "RARb homodimer (NR concentration 270 nM)",
    "val": 0.284
  },
  {
    "monomer sequence": "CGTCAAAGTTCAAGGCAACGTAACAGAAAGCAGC",
    "assayed target": "RARb homodimer (NR concentration 270 nM)",
    "val": 3.41
  },
  {
    "monomer sequence": "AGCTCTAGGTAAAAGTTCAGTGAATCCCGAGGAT",
    "assayed target": "RARb homodimer (NR concentration 270 nM)",
    "val": 2.44
  },
  {
    "monomer sequence": "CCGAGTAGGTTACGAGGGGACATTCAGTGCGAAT",
    "assayed target": "RARb homodimer (NR concentration 270 nM)",
    "val": 1.22
  }
]

Next up:
Could you please provide reported PBM binding z-score for `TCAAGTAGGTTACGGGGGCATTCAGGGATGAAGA` ? Thanks!
2.65

###

Tested on: PPARg:RXRa IVT, anti-PPARg (NR concentration 270 nM, RXRa partner concentration 90 nM)
Assay: PBM binding z-score (relative to random genomic background probes); higher = stronger binding; sequences stand for … in GC…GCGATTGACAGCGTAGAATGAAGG
reported metric: PBM binding z-score

Reference set, count: 4
[
  {
    "monomer sequence": "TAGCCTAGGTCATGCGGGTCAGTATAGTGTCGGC",
    "PBM binding z-score": 3.65
  },
  {
    "monomer sequence": "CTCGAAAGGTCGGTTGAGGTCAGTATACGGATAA",
    "PBM binding z-score": 1.36
  },
  {
    "monomer sequence": "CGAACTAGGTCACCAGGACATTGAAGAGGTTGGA",
    "PBM binding z-score": 8.55
  },
  {
    "monomer sequence": "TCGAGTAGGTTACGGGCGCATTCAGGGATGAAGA",
    "PBM binding z-score": 2.9
  }
]

Give measured PBM binding z-score for every item shown.
1. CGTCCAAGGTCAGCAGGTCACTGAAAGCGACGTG
2. TAGCCTAGGTCATTCAGGGGCTAGTATAGAAAGC

4.56
2.56

Give measured PBM binding z-score for every item shown.
1. TCGAGTAGGTTACGGAGGCATTCAGGGATGAAGA
2. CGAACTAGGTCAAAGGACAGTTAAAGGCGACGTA
3. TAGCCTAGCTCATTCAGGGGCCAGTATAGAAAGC
4. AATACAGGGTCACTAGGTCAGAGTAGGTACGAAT
5. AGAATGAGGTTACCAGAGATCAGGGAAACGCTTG
6. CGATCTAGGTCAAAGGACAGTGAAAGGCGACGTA
7. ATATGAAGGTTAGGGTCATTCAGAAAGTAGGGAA
8. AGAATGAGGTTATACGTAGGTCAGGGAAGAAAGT

3.05
8.44
-0.269
6.99
3.51
8.1
2.78
2.92

Give measured PBM binding z-score for every item shown.
1. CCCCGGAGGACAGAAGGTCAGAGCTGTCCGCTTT
2. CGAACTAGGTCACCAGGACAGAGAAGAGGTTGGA
3. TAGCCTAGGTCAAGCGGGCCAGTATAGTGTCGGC
4. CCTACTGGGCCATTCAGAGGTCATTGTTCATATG
5. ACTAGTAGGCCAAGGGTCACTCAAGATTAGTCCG
6. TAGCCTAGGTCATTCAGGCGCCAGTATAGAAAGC
7. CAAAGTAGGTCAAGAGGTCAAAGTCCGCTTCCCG

1. -0.0521
2. 8.26
3. 2.99
4. 4.17
5. 6.33
6. 2.61
7. 8.84

Give measured PBM binding z-score for every item shown.
1. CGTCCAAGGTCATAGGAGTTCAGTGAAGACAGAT
2. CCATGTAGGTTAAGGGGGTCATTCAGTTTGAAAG

1. 4
2. 6.99

Give measured PBM binding z-score for every item shown.
1. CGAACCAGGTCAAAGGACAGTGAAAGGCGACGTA
2. CGAACTATGTCACCAGGACAGTGAAGAGGTTGGA
3. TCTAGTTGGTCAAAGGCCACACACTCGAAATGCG

5.82
3.71
3.17

###

System: PPARg:RXRa DBDmut IVT, anti-RXR (DBD mutation: RXRa K156A/R161A, NR concentration 270 nM, RXRa partner concentration 90 nM)
Experiment: PBM binding z-score (relative to random genomic background probes); higher = stronger binding; sequences stand for … in GC…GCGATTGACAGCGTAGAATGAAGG
reported metric: PBM binding z-score
Give bare numbers.

Reference set, count: 2
[
  {
    "monomer sequence": "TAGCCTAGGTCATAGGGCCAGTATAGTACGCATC",
    "reported metric": "PBM binding z-score",
    "val": 1.41
  },
  {
    "monomer sequence": "CGAACTAGGTCAGAGCAGGACAGTGAAGGATGAT",
    "reported metric": "PBM binding z-score",
    "val": 7.51
  }
]

Give measured PBM binding z-score for every item shown.
1. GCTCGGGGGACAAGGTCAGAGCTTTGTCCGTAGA
2. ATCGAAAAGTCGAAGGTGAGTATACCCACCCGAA
3. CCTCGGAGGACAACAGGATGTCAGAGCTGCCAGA
4. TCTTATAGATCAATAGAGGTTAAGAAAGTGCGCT
5. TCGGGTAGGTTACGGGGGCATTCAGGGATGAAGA

1. 2.28
2. -0.679
3. 0.0272
4. 1.88
5. 4.27

###

Test system: RXRa DBDmut IVT, anti-RXR (DBD mutation: RXRa K156A/R161A, NR concentration 90 nM)
Assay: PBM binding z-score (relative to random genomic background probes); higher = stronger binding; sequences stand for … in GC…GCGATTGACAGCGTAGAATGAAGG
reported metric: PBM binding z-score
Numbers only.

[
  {
    "monomer sequence": "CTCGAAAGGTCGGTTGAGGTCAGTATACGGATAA",
    "reported metric": "PBM binding z-score",
    "val": 1.63
  },
  {
    "monomer sequence": "GCTTACGGGTCAAAGGTTATAACATGAATAGAAT",
    "reported metric": "PBM binding z-score",
    "val": 2.43
  },
  {
    "monomer sequence": "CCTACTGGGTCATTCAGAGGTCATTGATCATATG",
    "reported metric": "PBM binding z-score",
    "val": 2.77
  },
  {
    "monomer sequence": "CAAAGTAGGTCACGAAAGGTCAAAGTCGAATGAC",
    "reported metric": "PBM binding z-score",
    "val": 2.36
  }
]

Give measured PBM binding z-score for every item shown.
1. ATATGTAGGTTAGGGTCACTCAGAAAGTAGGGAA
2. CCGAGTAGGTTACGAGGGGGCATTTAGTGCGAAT

1.74
1.31

Give measured PBM binding z-score for every item shown.
1. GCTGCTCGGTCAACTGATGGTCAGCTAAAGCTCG
2. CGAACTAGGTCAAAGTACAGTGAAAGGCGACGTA
3. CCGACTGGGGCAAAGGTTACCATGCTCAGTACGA
4. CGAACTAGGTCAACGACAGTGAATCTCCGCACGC
5. TCGAGTAAGTTACGGGGGCATTCAGGGATGAAGA
6. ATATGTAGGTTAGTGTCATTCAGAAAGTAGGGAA
7. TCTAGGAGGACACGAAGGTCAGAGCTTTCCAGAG
8. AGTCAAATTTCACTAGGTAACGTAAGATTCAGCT

1: -0.121; 2: 2; 3: -0.0654; 4: 1.61; 5: 1.48; 6: 0.868; 7: 0.842; 8: 0.395

Give measured PBM binding z-score for every item shown.
1. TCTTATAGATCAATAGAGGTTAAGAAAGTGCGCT
2. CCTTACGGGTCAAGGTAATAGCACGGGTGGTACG
3. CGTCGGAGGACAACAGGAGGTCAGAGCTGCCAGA
4. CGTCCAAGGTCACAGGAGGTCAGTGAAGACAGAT
5. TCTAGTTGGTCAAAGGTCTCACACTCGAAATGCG
6. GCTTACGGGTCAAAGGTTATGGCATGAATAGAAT
7. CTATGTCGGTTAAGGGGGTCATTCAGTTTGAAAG

[0.906, 0.648, 0.531, 3.73, 1.14, 2.31, 2.98]

Give measured PBM binding z-score for every item shown.
1. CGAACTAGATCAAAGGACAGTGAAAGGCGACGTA
2. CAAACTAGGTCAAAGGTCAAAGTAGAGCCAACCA
3. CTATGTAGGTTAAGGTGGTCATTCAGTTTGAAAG
4. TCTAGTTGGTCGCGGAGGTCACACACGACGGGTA
5. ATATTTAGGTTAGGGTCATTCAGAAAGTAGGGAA

1. -0.208
2. 2.8
3. 0.518
4. 0.932
5. 2.76

Recorded values, source the supplement of paper PMC6555819.
